- PROTOCOL_DETAILS: yeast display, Sf9 membrane polyspecificity reagent, FACS + sequencing; frameworks hold sequencing errors
MEASURED_ATTRIBUTE: polyreactivity (PSR sort gate)

SEQUENCE_INPUT	MEASURED_ATTRIBUTE	RECORDED_RESULT
QVQLVESGGGLVQAGGSLRLSCAASGSTFNDYAMGWYRQAPGKERELVAGITWRGTSTYYADSVKGRFTISRDNAKNTVYLQMNSLKPEDTAVYYCAADVYYLLWLWMDYWGQGTQVTVSS	polyreactivity (PSR sort gate)	low polyreactivity
QVQHVESGGGLVQAGGRLRLSCPATGSTFTWYALASYRQAPGKERELVAAISRGGSTNYADSVKGRFTISRDNAKNSVYLQMNSLIPEDTAVYYCAAESYWRDVYWGQGTQVTVSS	polyreactivity (PSR sort gate)	low polyreactivity

----------
- PROTOCOL_DETAILS: yeast display, Sf9 membrane polyspecificity reagent, FACS + sequencing; frameworks hold sequencing errors
MEASURED_ATTRIBUTE: polyreactivity (PSR sort gate)

SEQUENCE_INPUT	RECORDED_RESULT
QVQRVESGGGLVQAGGTLRLSCAASGFIFGYYAMGWSRQAPGKERELVAAISRSGGRTYYADSVKGRFTISRANAKNTVYLQLNSLKPEDTAVYYCAKSGYQYADDMDYLGQGTQVTVSS	high polyreactivity
QVQLVESGGGLVQAGGSLRLSCAASGFTLVKYVMGWYRQAPGKERELVAAINRSGTSTYYADSVKGRFTISRDNAKNTVYLQMNCLKPDDTAVYYCAADRSRNFDWGQGTQVTVSS	high polyreactivity
QVQLVESGGGLVQSGGSLRLSCAASGFSFRYYAMGWYRQAPGKERELVAAITQSGGTTYYADSVKGRFTISRDNAKNTVYLQMNSLKPEDTAVYYCNGYGYGFTGKGDYWGQGTQVTVSS	high polyreactivity
QVQLVESGGGLVQAGGSLRLSCAASGISFSYYAMGWSRQAPGKERELVAAISSSGSTNYADSVKGRFTISRDNAKNTVYLQMNSLKPEDTAVYYCNAGYGRRVYVYSFKLRYNYWGQGTQVTVSS	high polyreactivity

I am curious: what polyreactivity (PSR sort gate) value has been reported for QVQLVESGGGLVQAGGSLRLSCAASGRTIVRYAMGWYRQAPGKERDLVAAITARGGSTYYADSVKGRFTISRDNAKNTVYLQMNRLKPEDTEVYYCATYYSGSLGRYYYWGKGTQVTVSS ?
high polyreactivity

----------
- PROTOCOL_DETAILS: yeast display, Sf9 membrane polyspecificity reagent, FACS + sequencing; frameworks hold sequencing errors

SEQUENCE_INPUT	polyreactivity (PSR sort gate)
QVQLVESGGGLVQAGGSLRLSCAASGSIFVGNAMGWYRQAPGKERELVAAISRSGGRTYYADSVKRRFTISRDNAKITVYLQMNSLKPEHTAVYYCNAYGWEQLQMDSWGQGTQVTVSS	high polyreactivity
QVQLVESGGGLVQAGGSLRLSCAASGISFYLYAMGWYRQAPGKERELVAAISWRGDSTYYADSVKGRFTISRDNAKNTVYLQMNSLKPEDTAVYYCAADLLPLYDYWGQGTQVTGSS	high polyreactivity

----------
- PROTOCOL_DETAILS: yeast display, Sf9 membrane polyspecificity reagent, FACS + sequencing; frameworks hold sequencing errors
MEASURED_ATTRIBUTE: polyreactivity (PSR sort gate)

SEQUENCE_INPUT	polyreactivity (PSR sort gate)
QVQLVESGGGLDQAGGSLRLSCAASGSTFRQNVKGWYRQAPGKERELVAAISKSGGSTYYADSVKGRFTISRDNAKNTVYLQMNSLKPEDTAVYYCATRQRQRVDNREYYYWGQGTQVTVSS	high polyreactivity
QVQLVESGGGLVQAGGSLRLSCAASGRIFRLYAMGWSRQAPGKERELVAAISSSGGDTYYADSVKGRFTISRDNAKNTVYLQMNSLKPEDTAVYYCNARKRYANVHYNYWGQGTQVTVSS	high polyreactivity
QVQLIESGGGIVQAGGSLRLSSAASGIIFDWYTMGWYRQATGKERELVAAISWRGGRTYYADSVKGRFTISRDNAKNTVYLQMNSLKAVDTGVYYCAAEAPVQPFYVFNSGIYDLDYWGQGTHVTVSS	low polyreactivity
QVQLVESGGGLVQAGGSLRLSCAASGFTFAWNAMGWYRQAPGKERELVATIDVSGGSTYYADSVKGRFTISRDNAKNTVYLQMNILKPEDTAVYYCAADELPEGGYDYWGHGTQVTVSS	low polyreactivity

I am curious: what polyreactivity (PSR sort gate) value has been reported for QVQLVESGGGLVQAGGSLRLSCAASGSIFWTNVMGWYRQAPGKERELVAAISYSDGSTYYADSVKGRFTISRDNAKNTVYLQMNSLKPEDTAVYYCAADQYYYWGGYDYWGQGTQVTVSS ?
low polyreactivity

----------
- PROTOCOL_DETAILS: yeast display, Sf9 membrane polyspecificity reagent, FACS + sequencing; frameworks hold sequencing errors
MEASURED_ATTRIBUTE: polyreactivity (PSR sort gate)

SEQUENCE_INPUT	polyreactivity (PSR sort gate)
QVQLVESGGGLVQAGGSLRLSCAASGSIFIPYAMGWYRQAPGKERELVAAIRDSGASTYYADSVKGRFTISRDNAKNTVYLQMNSLKPEDTAVYYCAVRFYDWRYYYWGQGTQVTVSS	high polyreactivity
QVQLVESGGGLVQAGGSLRLSCAASGLTFYTYPMGWYRQAPGKERELVAAISSSTGSTYYADSVKGRFTISRDNAKNTVYLQMNSLKPEDSAVYYCAAESYWGVNYWGQGTQVTVSS	high polyreactivity
QVQLVESGGGLVQAGGSLRLSSAASGRIFVGYAKGWYIQAPGKERELVAGIRYSGGSTYYADSVKGRFTISRDNAKNTVYLQMNSLKPEDTAVYYCATQVWHYAGRPNYKYDYWGQGTQVTVSS	low polyreactivity
QVQLVESGGGLGQAGGSLRLSCAASGSNFRPYAMGWYRPAPGKERELVAAISSSGGSTYYADSVKGRFTISRDNAKNTVYLQMNSLKPEDTAVYYCAAVSRSTWIHSRDYWGQGTQVTVSS	low polyreactivity

As a next step, examine the sequence that follows.
I am curious: what polyreactivity (PSR sort gate) value has been reported for QVQLVESGGGLVQAGGSLRLSCAASGSTFYVYDMGWYRQAPGKEREFVAVISWNGGSTYYADSVKGRFTISRDNAKNTVYLQMNSLKPEDTAVYYCATRRSSGRVTYDYWGQGTQVTVSS ?
low polyreactivity

----------
- PROTOCOL_DETAILS: yeast display, Sf9 membrane polyspecificity reagent, FACS + sequencing; frameworks hold sequencing errors
MEASURED_ATTRIBUTE: polyreactivity (PSR sort gate)

Sample records with polyreactivity (PSR sort gate):
SEQUENCE_INPUT	polyreactivity (PSR sort gate)
QVQLVESGGGLVQAGGSLRLSCAASGFIFYYYAMGWYRQAPGKERELVAAITSSGGSTYYADSVKGRFTISRDNAKNTVYLQMISLKPEDTAVYYCNALQYSRMDYWGQATQVTVSS	high polyreactivity
QVQLVESGGGLVQAGGSLRLSCAASGSTFNWYAMGWYRQAPGKERELVAAISSGGNTNYADSVKGRFTISRDNAKNTVYLQMNSLKPEDTAVYYCAARYPYKHLAWSTSKRFGYWGQGTQVTVSS	low polyreactivity
QVQLVESGGGLVQAGGSLRLSCAASGITFPYNAMGWYRQAPGKERELVASINSGDSTNYADSVKGRFTISRDNAKNTVYLQMNSLKPEDTAVYYCAAADYWHYKYDYWGQGTQVTVSS	low polyreactivity
QVQLVESGGGLVQAGGSLRVSCASSGRIFVYDMGWYRQAPGKERELVAAITRGGSTKYADSVKGRFTISRDNAKNTVFLQMNSLKPADTAVYYCAADTRRYRFYYWGQGTQVSVSS	high polyreactivity

As a next step, examine the sequence that follows.
I am curious: what polyreactivity (PSR sort gate) value has been reported for QVQLVESGGGLVQAGGSLRLSCAASGSTITYNAMGWYRQAPGKERELVAAITVSDGSTYYADSVKGRFTISRDNAKNTVYLQMNSLKPEDTAVYYCNKDRGHPFKYDYWGQGTQVTVSS ?
low polyreactivity

----------
- PROTOCOL_DETAILS: yeast display, Sf9 membrane polyspecificity reagent, FACS + sequencing; frameworks hold sequencing errors
MEASURED_ATTRIBUTE: polyreactivity (PSR sort gate)

Sample records with polyreactivity (PSR sort gate):
SEQUENCE_INPUT	polyreactivity (PSR sort gate)
QVQLVESGGGLVQAGGSLRLSCAASGIIFDDNAMGWYRQAPGKERELVAAINRDGSTYYADSVKGRFTISRDNAKNTVYLQLNSLKPEDTAVYYWAADFYGPRSAVYFLRYSTRYYWGQGTQVTVSS	low polyreactivity
QVQLVESGGGLVQAGGSLRLSCAASGRTFVYNAMGWYRQAPGIERELVAAITTSGASTYYADSVKGRFTISRDNAKNTVYLQMNSLKPEDTAVYDCNAYSRYSYGRTYGYWGQGTQVTVSS	high polyreactivity
QVQLVESGGGLVQAGGSLRLSCAASGRTFRDNTMGWYRQAPGKERELVAGISSSTGSTYYADSVKGRFTISRDNAKNTVYLQMNSLKPEDTAVYYCAAEYADYWTYNMGYWGQGTQVTVSS	low polyreactivity
QVQLVESGGGLGQAGGSLRLSCAASGSTLNYYAMGWYTQAPGKERELVAAITWSGGSTSYADSVKGRFTISRDNAKNTVYLQMNSLKPEDTAVYYCATDFPTVQLYDTDWLSSDMGYWGQGTQVTVSS	low polyreactivity
QVQLVESRGGLVQAGGILRLSCAACGSTFPKYAMGWYRQAPGKERELVAAITGISGRTYYADSLKGRFTISRDNAKNTVYLQMNSLKPEDTAVYYCNARIFAGWSIYNYWGQGTQVTVSS	high polyreactivity

As a next step, examine the sequence that follows.
I am curious: what polyreactivity (PSR sort gate) value has been reported for QVQLVESGGGLVQAGGSLRLSCAASGRTFYVNTMRWYRQAPGKEREFVARITRGGSTYYADSVKGRFTISRDNAMNTVYLEMNSLKPEDTAFYYCGTDHFPVYSTHVIYEFDYWGQGTQVTVSS ?
low polyreactivity
